tested on: hTERT-HMEC; experiment: percentage of EdU-negative (G0-arrested) nuclei per well, 72 h; higher = more G0 arrest; conditions: protein concentration 0.0225 µM; reference: sequence is the full UniProt precursor, the tested protein was the secreted form or ectodomain;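 note: secreted proteins added to cultured cells, EdU pulse at the end, nuclei found by Hoechst imaging, EdU status from nuclear versus surrounding ring intensity ratio, PBS as neutral control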
Consider the following sequences; for each one, report its percentage of EdU-negative.
Give bare numbers, in %.

[[record]]
sequence_entry = "MQRLRWLRDWKSSGRGLTAAKEPGARSSPLQAMRILQLILLALATGLVGGETRIIKGFECKPHSQPWQAALFEKTRLLCGATLIAPRWLLTAAHCLKPRYIVHLGQHNLQKEEGCEQTRTATESFPHPGFNNSLPNKDHRNDIMLVKMASPVSITWAVRPLTLSSRCVTAGTSCLISGWGSTSSPQLRLPHTLRCANITIIEHQKCENAYPGNITDTMVCASVQEGGKDSCQGDSGGPLVCNQSLQGIISWGQDPCAITRKPGVYTKVCKYVDWIQETMKNN [Q9UBX7]"
measured_target = "hTERT-HMEC"
value_kind = "percentage of EdU-negative"
unit_abbrev = "%"
reading = 5.31


According to the records, this sequence `MPVPASWPHLPSPFLLMTLLLGRLTGVAGEDELQVIQPEKSVSVAAGESATLRCAMTSLIPVGPIMWFRGAGAGRELIYNQKEGHFPRVTTVSELTKRNNLDFSISISNITPADAGTYYCVKFRKGSPDDVEFKSGAGTELSVRAKPSAPVVSGPAVRATPEHTVSFTCESHGFSPRDITLKWFKNGNELSDFQTNVDPAGDSVSYSIHSTARVVLTRGDVHSQVICEIAHITLQGDPLRGTANLSEAIRVPPTLEVTQQPMRAENQANVTCQVSNFYPRGLQLTWLENGNVSRTETASTLIENKDGTYNWMSWLLVNTCAHRDDVVLTCQVEHDGQQAVSKSYALEISAHQKEHGSDITHEAALAPTAPLLVALLLGPKLLLVVGVSAIYICWKQKA` displays percentage of EdU-negative of 5.34

---

tested on: MCF7; assay: percentage of EdU-negative (G0-arrested) nuclei per well, 72 h; higher = more G0 arrest; conditions: protein concentration 0.0225 µM; reference: sequence is the full UniProt precursor, the tested protein was the secreted form or ectodomain
value-kind: percentage of EdU-negative (%)
Numbers only, in %.

// worked examples, percentage of EdU-negative included
[[record]]
sequence_entry = "MKLAFLFLGPMALLLLAGYGCVLGASSGNLRTFVGCAVREFTFLAKKPGCRGLRITTDACWGRCETWEKPILEPPYIEAHHRVCTYNETKQVTVKLPNCAPGVDPFYTYPVAIRCDCGACSTATTECETI [Q86YW7]"
measured_target = "MCF7"
reading = 25.3

[[record]]
sequence_entry = "MCVGARRLGRGPCAALLLLGLGLSTVTGLHCVGDTYPSNDRCCHECRPGNGMVSRCSRSQNTVCRPCGPGFYNDVVSSKPCKPCTWCNLRSGSERKQLCTATQDTVCRCRAGTQPLDSYKPGVDCAPCPPGHFSPGDNQACKPWTNCTLAGKHTLQPASNSSDAICEDRDPPATQPQETQGPPARPITVQPTEAWPRTSQGPSTRPVEVPGGRAVAAILGLGLVLGLLGPLAILLALYLLRRDQRLPPDAHKPPGGGSFRTPIQEEQADAHSTLAKI"
measured_target = "MCF7"
reading = 24.5

[[record]]
sequence_entry = "MALTAHPSCLLALLVAGLAQGIRGPLRAQDLGPQPLELKEAFKLFQIQFNRSYLSPEEHAHRLDIFAHNLAQAQRLQEEDLGTAEFGVTPFSDLTEEEFGQLYGYRRAAGGVPSMGREIRSEEPEESVPFSCDWRKVASAISPIKDQKNCNCCWAMAAAGNIETLWRISFWDFVDVSVQELLDCGRCGDGCHGGFVWDAFITVLNNSGLASEKDYPFQGKVRAHRCHPKKYQKVAWIQDFIMLQNNEHRIAQYLATYGPITVTINMKPLQLYRKGVIKATPTTCDPQLVDHSVLLVGFGSVKSEEGIWAETVSSQSQPQPPHPTPYWILKNSWGAQWGEKGYFRLHRGSNTCGITKFPLTARVQKPDMKPRVSCPP"
measured_target = "MCF7"
reading = 23.2

[[record]]
sequence_entry = "MDPGLQQALNGMAPPGDTAMHVPAGSVASHLGTTSRSYFYLTTATLALCLVFTVATIMVLVVQRTDSIPNSPDNVPLKGGNCSEDLLCILKRAPFKKSWAYLQVAKHLNKTKLSWNKDGILHGVRYQDGNLVIQFPGLYFIICQLQFLVQCPNNSVDLKLELLINKHIKKQALVTVCESGMQTKHVYQNLSQFLLDYLQVNTTISVNVDTFQYIDTSTFPLENVLSIFLYSNSD"
measured_target = "MCF7"
reading = 28

[[record]]
sequence_entry = "MGSGPRGALSLLLLLLAPPSRPAAGCPAPCSCAGTLVDCGRRGLTWASLPTAFPVDTTELVLTGNNLTALPPGLLDALPALRTAHLGANPWRCDCRLVPLRAWLAGRPERAPYRDLRCVAPPALRGRLLPYLAEDELRAACAPGPLCWGALAAQLALLGLGLLHALLLVLLLCRLRRLRARARARAAARLSLTDPLVAERAGTDES"
measured_target = "MCF7"
reading = 23.5


According to the records, this sequence MALRRPPRLRLCARLPDFFLLLLFRGCLIGAVNLKSSNRTPVVQEFESVELSCIITDSQTSDPRIEWKKIQDEQTTYVFFDNKIQGDLAGRAEILGKTSLKIWNVTRRDSALYRCEVVARNDRKEIDEIVIELTVQVKPVTPVCRVPKAVPVGKMATLHCQESEGHPRPHYSWYRNDVPLPTDSRANPRFRNSSFHLNSETGTLVFTAVHKDDSGQYYCIASNDAGSARCEEQEMEVYDLNIGGIIGGVLVVLAVLALITLGICCAYRRGYFINNKQDGESYKNPGKPDGVNYIRTDEEGDFRHKSSFVI [Q9BX67] displays percentage of EdU-negative of 21.3

Data provenance is the supplement of paper PMC11316812.
